Observed pKd values for FcMBL (Homo sapiens, UniProt P11226) are listed in what follows.
pKd: −log10 of the molar value.

| compound | pKd |
| --- | --- |
| CC(=O)N[C@H]1C(O)O[C@H](CO)[C@@H](O)[C@@H]1O[C@H](C)C(=O)O (some centres unmarked) | 1.77 |
| OC[C@H]1O[C@H](O[C@H]2[C@H](O)[C@@H](O)C(O)O[C@@H]2CO)[C@H](O)[C@@H](O)[C@@H]1O (mixture of isomers) | 1.82 |
